Subject Of Test: Metabotropic glutamate receptor 8 (Homo sapiens)
Sequence (O00222 whole entry): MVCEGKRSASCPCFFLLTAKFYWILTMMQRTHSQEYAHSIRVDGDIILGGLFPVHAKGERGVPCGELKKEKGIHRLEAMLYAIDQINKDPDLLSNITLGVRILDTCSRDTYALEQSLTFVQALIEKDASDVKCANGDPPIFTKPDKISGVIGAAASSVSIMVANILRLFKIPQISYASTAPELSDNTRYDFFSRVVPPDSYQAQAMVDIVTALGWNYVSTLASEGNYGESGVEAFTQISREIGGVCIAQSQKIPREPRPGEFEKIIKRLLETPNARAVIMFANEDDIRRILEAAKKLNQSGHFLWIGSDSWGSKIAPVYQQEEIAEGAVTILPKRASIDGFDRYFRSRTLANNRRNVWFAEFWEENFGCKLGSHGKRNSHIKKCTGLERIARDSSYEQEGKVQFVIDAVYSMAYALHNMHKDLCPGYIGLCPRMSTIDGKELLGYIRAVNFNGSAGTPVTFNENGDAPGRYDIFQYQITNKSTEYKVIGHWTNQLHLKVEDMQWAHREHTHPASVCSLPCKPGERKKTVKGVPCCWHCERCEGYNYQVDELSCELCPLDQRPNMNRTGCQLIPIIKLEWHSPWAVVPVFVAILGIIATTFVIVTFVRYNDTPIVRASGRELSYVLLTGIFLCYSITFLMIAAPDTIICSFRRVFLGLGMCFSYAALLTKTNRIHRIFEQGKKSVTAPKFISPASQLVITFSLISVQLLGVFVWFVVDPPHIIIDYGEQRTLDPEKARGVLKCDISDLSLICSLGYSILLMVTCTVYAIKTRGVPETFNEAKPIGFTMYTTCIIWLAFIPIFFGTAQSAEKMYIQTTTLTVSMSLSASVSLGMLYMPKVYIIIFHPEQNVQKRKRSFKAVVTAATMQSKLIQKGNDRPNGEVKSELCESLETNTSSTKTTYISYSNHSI
Method Summary: Agonist activity at mGlu8 receptor (unknown origin) expressed in human Flp-In-T-REx-293 cells by luciferase based GloSensor cAMP Assay
We begin with a simple list: items and their reported EC50.

Cpd Smiles | EC50
Fc1ccc(N2CCN(Cc3cc(C(F)(F)F)cn4c(CC5CC5)nnc34)CC2)c(F)c1 | > 10 µM
Fc1cc(Cl)ccc1N1CCN(Cc2ccn3c(CC4CC4)nnc3c2C(F)(F)F)CC1 | > 10 µM
O=C(c1cnc2c(cnn2CC2CC2)c1C(F)(F)F)N1CCN(c2ccc(F)cc2F)CC1 | > 1 µM

[ask] Request the reported EC50 associated with "Fc1ccccc1N1CCN(Cc2ccn3c(CC4CC4)nnc3c2C(F)(F)F)CC1"
[reply] > 10 µM

[ask] Same read-out for "Fc1ccc(N2CCN(Cc3ccn4c(CC5CC5)nnc4c3C(F)(F)F)CC2)c(Cl)c1" ?
[reply] > 10 µM
